System: LOX IMVI
ASSAY REMARKS: NCI tumour cell line growth inhibition, 48 h
Activity calls are given as the source filed them. No stated cut-off is given here; in the data, active = GI50 up to about 1.1 µM and inactive = higher.
Your response should consist of one outcome taken from true = active, false = inactive

compound="CC(C)CCCC(C)[C@H]1CC[C@H]2NCCCC[C@]12C (stereo partly specified)" tested_on="LOX IMVI" group=false

Would you mind telling me which call this test gave CN(C)CC(C)(C)C(/C=C/c1ccccc1)=N\Nc1ccccc1 ?
true

Also, C[C@@H]1C[C@@H]2OC(=O)[C@]3(C)[C@H]2[C@@H](OC3(C)O)[C@]2(C)C(=O)C=C[C@@H]12 (stereo partly specified) [TENULIN] please.
false

----------
System: OVCAR-3
ASSAY REMARKS: NCI tumour cell line growth inhibition, 48 h
Activity calls are given as the source filed them. No stated cut-off is given here; in the data, active = GI50 up to about 1.1 µM and inactive = higher.
Respond using exactly one of the listed classes: active, inactive

compound="COc1ccc(-c2nc(-c3cnccn3)n(C3OC(CO)C(O)C3O)n2)cc1 (stereo unspecified)" group=inactive
compound=O=[N+]([O-])C(/C(Cl)=C(/Cl)N1CCOCC1)=C1\Nc2ccccc2O1 group=inactive

Test call, this compound: O=C(O)c1ccc(Nc2nc3cc(C(F)(F)F)ccc3n3cccc23)cc1
inactive

Next compound: COc1cc(C2c3cc4c(cc3OC(NNc3ccccc3)C2C)OCO4)cc(OC)c1OC (stereo unspecified)
active

Please give the result for COc1ccc(-n2c(SC(CN3CCOCC3)CN3CCCC3=O)nc3ccccc3c2=O)cc1 (stereo unspecified) too.
inactive

Entry CCOC(=O)c1cccc(/N=N/c2ncc(/C=C/C(=O)OC)[nH]2)c1 please
inactive

Quick one: CC(=O)Nc1ccc(-c2nnc(SCC(=O)Nc3cccc([N+](=O)[O-])c3)o2)cc1
inactive

Same lookup for COc1ccc(CSc2ccccc2Cn2cccc2)cc1OC , please.
inactive

Field entry: Nc1c(C(=O)N/N=C/c2ccc(Cl)cc2)sc(=S)n1-c1ccccc1
inactive

Follow-up entry: COc1cc(C2c3cc4c(cc3[C@@H](Nc3ccc5c(c3)OCCO5)C3COC(=O)[C@H]23)OCO4)cc(OC)c1O (stereo partly specified)
active

Proceed to CCOC(=O)CC/C(=N/Nc1ccc(Cl)cc1[N+](=O)[O-])C(=O)OCC
inactive

Now this one: Cc1cccc2c1NC(=S)[C@@H]1CCCN1C2=O
inactive

Okay, and NC1=CN(Cc2ccccc2)C2=N/C(=C\c3ccccc3)C(=O)N12 ?
inactive

Please give the result for N=C(N)SCCc1cn2ccccc2n1 too.
inactive

----------
Test system: MDA-N
ASSAY REMARKS: NCI tumour cell line growth inhibition, 48 h
Active and inactive are the calls of the source. Cut-off read from the data, not from the text of the source: active = GI50 up to about 1.1 µM and inactive = higher.
Pick one and only one: active, inactive

molecule=COc1ccc2c(c1)/C(=C(\C(Cl)=C(Cl)Cl)[N+](=O)[O-])N2 group=inactive
molecule="C[C@@H]1C[C@@H]2OC(=O)[C@]3(C)[C@H]2[C@@H](OC3(C)O)[C@]2(C)C(=O)C=C[C@@H]12 (stereo not given in full) [TENULIN]" group=inactive

Switching to the query record.
Recorded call for O=C(CCc1cc(O)cc(O)c1)NCCc1cc(OCc2ccccc2)cc(OCc2ccccc2)c1 ?
inactive

----------
Tested on: SR
ASSAY REMARKS: NCI tumour cell line growth inhibition, 48 h
Calls of active or inactive are those of the source. Cut-off read from the data, not from the text of the source: active = GI50 up to about 1.1 µM and inactive = higher.
Here, each record is paired with measured GI50 data.

Worked set:
compound=Cc1csc2n(C)c(=O)c3ccccc3[n+]12 tested_on=SR result="> 100 µM (inactive)"
compound="O=C1CC(O)c2c(Br)sc(Br)c21 (configuration not stated)" tested_on=SR result="5.25 µM (inactive)"
compound=CN1CN(c2ccccc2)C2(CCN(CCc3csc4ccccc34)CC2)C1=O tested_on=SR result="11.7 µM (inactive)"

// returns reported GI50 for input O=c1oc2ccccc2c(O)c1C(C/C(CCN1CCCC1)=N/O)c1ccccc1 (configuration not stated)
> 100 µM (inactive)

Cc1cc(O)c(C=O)c(C)c1CCC1(C)C=Cc2cc(O)ccc2O1 (configuration not stated) ?
> 100 µM (inactive)

Same for O=C(/C=N/O)Nc1ccc(Cl)c(I)c1
15.7 µM (inactive)

// next record CCOC(=O)c1nc2c3c(ncn2n1)Oc1c(c(-c2ccccc2)nn1-c1ccccc1)C3c1ccc(OC)c(OC)c1 (configuration not stated)
51.8 µM (inactive)

Check CCOc1cc(/C=N/c2ccc(Oc3ccc(Cl)cc3)c(Cl)c2)ccc1O too.
33.2 µM (inactive)
